Recorded values, source ChEMBL document CHEMBL5620396.

Assay: Semi-thermodynamic aqueous solubility of compound
Assay type: physicochemical
Conditions: buffer; read-out: Therm_solubility
Catalogue of solubility thermodynamic readings, one per entry.

record-smiles: COc1ccc(-c2cnc3c(N)cc(-c4ccccc4OC)cn23)cc1OC
solubility thermodynamic [µM]: 38

record-smiles: COc1ccc(-c2cnc3c(NC=O)cc(-c4ccccc4OC)cn23)cc1OC
solubility thermodynamic [µM]: 37

record-smiles: COc1ccccc1-c1cc(NS(C)(=O)=O)c2ncc(-c3ccc4c(cnn4C)c3)n2c1
solubility thermodynamic [µM]: 18

record-smiles: COc1cc(C#N)ccc1-c1cc(NS(C)(=O)=O)c2ncc(-c3ccc4c(cnn4C)c3)n2c1
solubility thermodynamic [µM]: 2

record-smiles: COc1ccc(-c2cnc3c(N4CC5(COC5)C4)nc(-c4ccccc4OC)cn23)cc1OC
solubility thermodynamic [µM]: 26

record-smiles: COc1ccc(-c2cnc3c(NC(C)=O)cc(-c4ccccc4OC)cn23)cc1OC
solubility thermodynamic [µM]: 39

record-smiles: COc1ccc(-c2cnc3c(NC=O)cc(-c4ccccc4OC)cn23)cc1C#N
solubility thermodynamic [µM]: 2

record-smiles: CNc1cc(-c2ccccc2OC)cn2c(-c3ccc(OC)c(OC)c3)cnc12
solubility thermodynamic [µM]: 8

record-smiles: COc1ccc(-c2cnc3ncc(-c4ccccc4OC)cn23)cc1OC
solubility thermodynamic [µM]: 1

record-smiles: COc1ccc(-c2cnc3c(N4CCOCC4)nc(-c4ccccc4OC)cn23)cc1OC
solubility thermodynamic [µM]: 4

* * *

Experiment: AUC (0 to 8 hrs) in CD-1 mouse at 1 mg/kg, po administered as repeated dose on day 1 and 4
Type: ADME, organism-based
Conditions: in vivo, time 4 day
recorded-endpoint: AUC(0-t) at 96 h (ng·h/mL)

record-smiles: Cc1cc(F)ccc1-c1cc(NS(C)(=O)=O)c2ncc(-c3ccc4c(cnn4C)c3)n2c1
reported: 731

* * *

Experiment: Half life in CD-1 mouse at 20 mg/kg, po administered as repeated dose on day 1 and 4
Type: ADME, organism-based
Settings: in vivo, time 4 day

record-smiles: Cc1cc(F)ccc1-c1cc(NS(C)(=O)=O)c2ncc(-c3ccc4c(cnn4C)c3)n2c1
half-life: 4.1 h

* * *

Experiment: Cmax in CD-1 mouse at 20 mg/kg, po administered as single dose and measured on day 1
Format: ADME, organism-based
Settings: in vivo, time 1 day

record-smiles: Cc1cc(F)ccc1-c1cc(NS(C)(=O)=O)c2ncc(-c3ccc4c(cnn4C)c3)n2c1
Cmax, ng/mL: 677

* * *

Assay: Cmax in CD-1 mouse at 20 mg/kg, po administered as repeated dose on day 1 and 4
Assay type: ADME, organism-based
Settings: in vivo, time 4 day

record-smiles: Cc1cc(F)ccc1-c1cc(NS(C)(=O)=O)c2ncc(-c3ccc4c(cnn4C)c3)n2c1
Cmax [ng/mL]: 784

* * *

Experiment: Semi-thermodynamic aqueous solubility of compound
Format: physicochemical
Conditions: buffer; read-out: Therm_solubility
Each entry below carries its recorded log10 of solubility thermodynamic.
recorded-endpoint: log10 of solubility thermodynamic (log10 of the value in µM)

record-smiles: CC1=C(c2cc(NS(C)(=O)=O)c3ncc(-c4ccc5c(cnn5C)c4)n3c2)CCCC1
log10 of solubility thermodynamic: 1.41
--
record-smiles: COc1ccc(-c2cnc3c(N(C)C=O)cc(-c4ccccc4OC)cn23)cc1OC
log10 of solubility thermodynamic: 0.00
--
record-smiles: COc1ccccc1-c1cc(NC=O)c2ncc(-c3ccc4c(cnn4C)c3)n2c1
log10 of solubility thermodynamic: 0.30
--
record-smiles: COc1ccccc1-c1cc(NC=O)c2ncc(-c3ccccc3)n2c1
log10 of solubility thermodynamic: 0.30
--
record-smiles: CNc1nc(-c2ccccc2OC)cn2c(-c3ccc(OC)c(OC)c3)cnc12
log10 of solubility thermodynamic: 1.59
--
record-smiles: COc1ccccc1-c1cc(NC=O)c2ncc(-c3ccc4nc(C)oc4c3)n2c1
log10 of solubility thermodynamic: 0.30
--
record-smiles: COc1ccccc1-c1cc(NC=O)c2ncc(-c3ccc4c(c3)c(C)nn4C)n2c1
log10 of solubility thermodynamic: 0.78
--
record-smiles: Cc1cc(C#N)ccc1-c1cc(NS(C)(=O)=O)c2ncc(-c3ccc4c(cnn4C)c3)n2c1
log10 of solubility thermodynamic: 1.41
--
record-smiles: COc1ccccc1-c1cc(NC=O)c2ncc(-c3ccc4c(C)nn(C)c4c3)n2c1
log10 of solubility thermodynamic: 0.30
--
record-smiles: COc1ccc(-c2cnc3c(NC=O)nc(-c4ccccc4OC)cn23)cc1OC
log10 of solubility thermodynamic: 0.00
--
record-smiles: COc1ccc(-n2cnc3cnc(-c4ccccc4OC)cc32)cc1OC
log10 of solubility thermodynamic: 2.30
--
record-smiles: COc1cc(F)ccc1-c1cc(NS(C)(=O)=O)c2ncc(-c3ccc4c(cnn4C)c3)n2c1
log10 of solubility thermodynamic: 1.08
--
record-smiles: COc1ccc(-c2cnc3c(NS(C)(=O)=O)cc(-c4ccccc4OC)cn23)cc1OC
log10 of solubility thermodynamic: 1.63
--
record-smiles: Cc1cc(F)ccc1-c1cc(NS(C)(=O)=O)c2ncc(-c3ccc4c(cnn4C)c3)n2c1
log10 of solubility thermodynamic: 1.32
--
record-smiles: COc1ccccc1-c1cc(NC=O)c2ncc(-c3ccc4nn(C)c(C)c4c3)n2c1
log10 of solubility thermodynamic: 0.60
--
record-smiles: COc1ccc(-c2cnc3ccc(-c4ccccc4OC)cn23)cc1OC
log10 of solubility thermodynamic: 2.19
--
record-smiles: Cc1ccccc1-c1cc(NS(C)(=O)=O)c2ncc(-c3ccc4c(cnn4C)c3)n2c1
log10 of solubility thermodynamic: 1.11
--
record-smiles: COc1ccc(-c2cnc3c(C(N)=O)cc(-c4ccccc4OC)cn23)cc1OC
log10 of solubility thermodynamic: 1.08
--
record-smiles: Cn1ncc2cc(-c3cnc4c(NS(C)(=O)=O)cc(-c5ccc(F)cc5Cl)cn34)ccc21
log10 of solubility thermodynamic: 0.95

* * *

Assay: AUC (0 to 8 hrs) in CD-1 mouse at 20 mg/kg, po administered as repeated dose on day 1 and 4
Assay type: ADME, organism-based
Conditions: in vivo, time 4 day

record-smiles: Cc1cc(F)ccc1-c1cc(NS(C)(=O)=O)c2ncc(-c3ccc4c(cnn4C)c3)n2c1
units-symbol: ng·h/mL
AUC(0-t) at 96 h: 4370

* * *

Assay: Solubility of compound at pH 7
Format: physicochemical
Settings: buffer

record-smiles: Cc1cc(F)ccc1-c1cc(NS(C)(=O)=O)c2ncc(-c3ccc4c(cnn4C)c3)n2c1
solubility (µM): 21

* * *

Experiment: Half life in CD-1 mouse at 1 mg/kg, po administered as repeated dose on day 1 and 4
Format: ADME, organism-based
Conditions: in vivo, time 4 day

record-smiles: Cc1cc(F)ccc1-c1cc(NS(C)(=O)=O)c2ncc(-c3ccc4c(cnn4C)c3)n2c1
half-life [h]: 2.5

* * *

Assay: Plasma protein binding in mouse
Type: ADME, cell-free
Settings: read-out: PPB (converted)
recorded-endpoint: fraction unbound

record-smiles: Cc1cc(F)ccc1-c1cc(NS(C)(=O)=O)c2ncc(-c3ccc4c(cnn4C)c3)n2c1
reported: 0.005

* * *

Assay: Cmax in CD-1 mouse at 1 mg/kg, po administered as repeated dose on day 1 and 4
Type: ADME, organism-based
Details: in vivo, time 4 day
recorded-endpoint: Cmax (µg/mL)

record-smiles: Cc1cc(F)ccc1-c1cc(NS(C)(=O)=O)c2ncc(-c3ccc4c(cnn4C)c3)n2c1
units-symbol: µg/mL
reported: 0.204

* * *

Experiment: Metabolic stability in mouse S9 fraction assessed as compound remaining measured after 45 mins in absence of NADPH and […]
Format: ADME, subcellular
Conditions: read-out: Stability

record-smiles: COc1ccc(-c2cnc3ncc(-c4ccccc4OC)cn23)cc1OC
remaining at 0.75 h [%]: 70
--
record-smiles: COc1ccc(-c2cnc3c(NC=O)cc(-c4ccccc4OC)cn23)cc1OC
remaining at 0.75 h [%]: 28
--
record-smiles: COc1ccc(-c2cnc3c(NC=O)nc(-c4ccccc4OC)cn23)cc1OC
remaining at 0.75 h [%]: 0.5
--
record-smiles: COc1ccc(-c2cnc3c(NC(C)=O)cc(-c4ccccc4OC)cn23)cc1OC
remaining at 0.75 h [%]: 1
--
record-smiles: COc1ccc(-c2cnc3c(N(C)C=O)cc(-c4ccccc4OC)cn23)cc1OC
remaining at 0.75 h [%]: 46
--
record-smiles: CNc1cc(-c2ccccc2OC)cn2c(-c3ccc(OC)c(OC)c3)cnc12
remaining at 0.75 h [%]: 81

* * *

Test: AUC (0 to 8 hrs) in CD-1 mouse at 3 mg/kg, po administered as single dose and measured over 24 hrs
Format: ADME, organism-based
Details: in vivo
recorded-endpoint: AUC(0-t) at 24 h (ng·h/mL)

record-smiles: Cc1cc(F)ccc1-c1cc(NS(C)(=O)=O)c2ncc(-c3ccc4c(cnn4C)c3)n2c1
recorded-endpoint: AUC(0-t) at 24 h
units-symbol: ng·h/mL
reported: 3060

* * *

Assay: AUC (0 to 8 hrs) in CD-1 mouse at 1 mg/kg, po administered as single dose and measured on day 1
Type: ADME, organism-based
Settings: in vivo, time 1 day

record-smiles: Cc1cc(F)ccc1-c1cc(NS(C)(=O)=O)c2ncc(-c3ccc4c(cnn4C)c3)n2c1
AUC(0-t) at 24 h [ng·h/mL]: 845
